Quick reference: Emax of the listed items.
# System: c-myc in 22RV-1 cells
# assay_explanation: Human c-myc ELISA assay
# Format: cell-based
# setup_conditions: Homo sapiens, 22Rv1, 18 h, read-out: Degradation of BRD4: Maximum inhibition (%) c-Myc ELISA in 22RV1 cells
# Description: 22RV-1 cells are seeded at 30,000 cells/well at a volume of 75 μL/well in RPMI+10% FBS media in 96-well plates and grown overnight at 37 C. Cells are dosed with compounds at 4× concentration diluted in 0.4% DMSO; compounds are serially diluted 1:3 for 8-point dose curve. 25 ul of compounds is added to cells for a final concentration starting at 300 nM-0.3 nM or 1 uM-1 nM in 0.1% DMSO and incubated for 18 hrs. […] Data is analyzed and plotted using GraphPad Prism software. […]
Please respond with the number in % and leave the unit unwritten.

Some compounds with recorded Emax:
compound=Cc1ncsc1-c1ccc(CNC(=O)[C@@H]2C[C@@H](O)CN2C(=O)[C@@H](NC(=O)COCCOCCOCCOc2ccc3c(c2)c2c(C(N)=O)cc(-c4c(C)noc4C)cc2n3Cc2ccccc2)C(C)(C)C)cc1 observed_result=98
compound=Cc1ncsc1-c1ccc([C@H](C)NC(=O)[C@@H]2C[C@@H](O)CN2C(=O)[C@@H](NC(=O)COC/C=C\COCCNC(=O)C[C@@H]2N=C(c3ccc(Cl)cc3)c3c(sc(C)c3C)-n3c(C)nnc32)C(C)(C)C)cc1 observed_result=100
compound=Cc1ncsc1-c1ccc([C@H](C)NC(=O)[C@@H]2C[C@@H](O)CN2C(=O)[C@@H](C(C)C)n2cc(-c3cc(F)cc(O[C@H]4C[C@H](NC(=O)C[C@@H]5N=C(c6ccc(Cl)cc6)c6c(sc(C)c6C)-n6c(C)nnc65)C4)c3)cn2)cc1 observed_result=33.4
compound=Cc1sc2c(c1C)C(c1ccc(Cl)cc1)=N[C@@H](CC(=O)N[C@H]1C[C@@H](Oc3cc(-c4cnn([C@H](C(=O)N5C[C@H](O)C[C@H]5C(=O)N[C@@H](C)c5ccc(-c6nccn6C)cc5)C(C)C)c4)ccn3)C1)c1nnc(C)n1-2 observed_result=9.5

// query Emax value for entry CC1=NN=C2C1c1sc(C)c(C)c1C(c1ccc(Cl)cc1)=N[C@H]2CC(=O)NCCOCCOCCC(=O)N[C@H](C(=O)N1C[C@H](O)CC1C(=O)N[C@@H](C)c1ccc(-c2scnc2C)cc1)C(C)(C)C (stereo partly drawn)
96

====

Entries annotated with measured Emax
# System: c-myc in 22RV-1 cells
# assay_explanation: Human c-myc ELISA assay
# Type: cell-based
# setup_conditions: Homo sapiens, 22Rv1, 18 h, read-out: Degradation of BRD4: Maximum inhibition (%) c-Myc ELISA in 22RV1 cells
Write it as a number; the unit % goes unstated.

molecule="Cc1ncsc1-c1ccc([C@H](C)NC(=O)[C@@H]2C[C@@H](O)CN2C(=O)[C@@H](NC(=O)c2ccc(OC(C)CCNC(=O)C[C@@H]3N=C(c4ccc(Cl)cc4)c4c(sc(C)c4C)-n4c(C)nnc43)cn2)C(C)(C)C)cc1 (stereo partly drawn)" system_tested="c-myc in 22RV-1 cells" reported_metric=Emax observed_result=97
molecule=Cc1ncsc1-c1ccc(CNC(=O)[C@@H]2C[C@@H](O)CN2C(=O)[C@H](C(C)C)N2Cc3ccccc3C2=O)c(OCCOCCOCCCCOCCOCCNC(=O)C[C@@H]2N=C(c3ccc(Cl)cc3)c3c(sc(C)c3C)-n3c(C)nnc32)c1 system_tested="c-myc in 22RV-1 cells" reported_metric=Emax observed_result=100

Field: next molecule
So what's the measured Emax for this one? Cc1ncsc1-c1ccc([C@H](C)NC(=O)[C@@H]2C[C@@H](O)CN2C(=O)[C@@H](NC(=O)CN2CCN(C3CC4(C3)CN(C(=O)C[C@@H]3N=C(c5ccc(Cl)cc5)c5c(sc(C)c5C)-n5c(C)nnc53)C4)[C@H](C)C2)C(C)(C)C)cc1
100
